- Assayed System: EGFRvIII-Fc fusion antigen (human, UniProt P00533 25-645)
- Assay Procedure: SPR Biacore T200, EGFRvIII-Fc captured via anti-hu Fc, scFv analyte, 1:1 model;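 note: Multi-cycle kinetics on a CM5 chip in HBS-P+ running buffer, 180 s scFv association then 540 s dissociation, with blank flow cell signals subtracted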
# note: exactly 2 fold is not below, so it is False; use True for kOFF improvement factor vs parental scFv Li3G30 strictly under it

Binder | Label
scFv 475 (scFv, V domains shown, One-chain scFv, His-tagged) VH: EVQLVQSGAEVKKPGESLKISCKGSGYSFTSYWIGWVRQMPGKGLEWMGIIYPDDSDTRYSPSFQGQVTISADKSISTAYLQWSSLKASDTAMYYCARLGSSWTNDAFDIWGQGTLVTVSS VL: SYELTQPPSVSVSPGQTARITCSGDALPKQYAYWYQQKPGQAPVLVIYKDTERPSGIPERFSGSSSGTTVTLTISGVQAEDEADYYCQSVDSSGTYVVFGGGTKLTVL | True
scFv 477 (scFv, V domains shown, One-chain scFv, His-tagged) VH: EVQLVQSGAEVKKPGESLKISCKGSGYSFSSYWIGWVRQMPGKGLEWMGIIYPGDSDTRYSPSFQGQVTISADKSISTAYLQWSSLKASDTAMYYCARLGSSWTNDAFDIWGQGTLVTVSS VL: SYELTQPPSVSVSPGQTARITCSGDYLPKQYAYWYQQKPGQAPVLVIYKDTERPSGIPERFSGSSSGTTVTLTISGVQAEDEADYYCQSADASGTYYVFGGGTKLTVL | True
scFv 470 (scFv, V domains shown, One-chain scFv, His-tagged) VH: EVQLVQSGAEVKKPGESLKISCKGSGYSFNSYWIGWVRQMPGKGLEWMGIIYPGDSDTRYSPSFQGQVTISADKSISTAYLQWSSLKASDTAMYYCARLGSSWTNDAFDIWGQGTLVTVSS VL: SYELTQPPSVSVSPGQTARITCSGDALDKQYAYWYQQKPGQAPVLVIYKDSERPSGIPERFSGSSSGTTVTLTISGVQAEDEADYYCQSVDSSETYVVFGGGTKLTVL | False
scFv 479 (scFv, V domains shown, One-chain scFv, His-tagged) VH: EVQLVQSGAEVKKPGESLKISCKGSGYDFSSYWIGWVRQMPGKGLEWMGIIYPGDSDTIYSPSFQGQVTISADKSISTAYLQWSSLKASDTAMYYCARLGSSWTNDAFDIWGQGTLVTVSS VL: SYELTQPPSVSVSPGQTARITCSGAALPEQYAYWYQQKPGQAPVLVIYKDSERPSGIPERFSGSSSGTTVTLTISGVQAEDEADYYCQSVDSSGTFYVFGGGTKLTVL | True
scFv 474 (scFv, V domains shown, One-chain scFv, His-tagged) VH: EVQLVQSGAEVKKPGESLKISCKGSGYSFSHYWIGWVRQMPGKGLEWMGITYPGDVDTRYDPSFQGQVTISADKSISTAYLQWSSLKASDTAMYYCARLGSSWTNDAFDIWGQGTLVTVSS VL: SYELTQPPSVSVSPGQTARITCSGDALPKTYAYWYQQKPGQAPVLVIYKDTERPSGIPERFSGSSSGTTVTLTISGVQAEDEADYYCQSADSSGTYLVFGGGTKLTVL | True
scFv 476 (scFv, V domains shown, One-chain scFv, His-tagged) VH: EVQLVQSGAEVKKPGESLKISCKGSGYSFTSYWIGWVRQMPGKGLEWMGIIYPGDSDTRYSPSFQGQVTISADKSISTAYLQWSSLKASDTAMYYCARLGSSWTNDAFDIWGQGTLVTVSS VL: SYELTQPPSVSVSPGQTARITCSGDNIPHQYAYWYQQKPGQAPVLVIYKDTERPAGIPERFSGSSSGTTVTLTISGVQAEDEADYYCQSADPTGAYLVFGGGTKLTVL | True
scFv 471 (scFv, V domains shown, One-chain scFv, His-tagged) VH: EVQLVQSGAEVKKPGESLKISCKGSGYSFNSYWIGWVRQMPGKGLEWMGIIYPGDSANRYSPSFQGQVTISADKSISTAYLQWSSLKASDTAMYYCARLGSSWTNDAFDIWGQGTLVTVSS VL: SYELTQPPSVSVSPGQTARITCSGDYLPKQYAYWYQQKPGQAPVLVIYKDTERPSGIPERFSGSSSGTTVTLTISGVQAEDEADYYCQSVDSSHPSVVFGGGTKLTVL | False
scFv 472 (scFv, V domains shown, One-chain scFv, His-tagged) VH: EVQLVQSGAEVKKPGESLKISCKGSGYSFGYYWIGWVRQMPGKGLEWMGIIYPGDSHTRYSPSFQGQVTISADKSISTAYLQWSSLKASDTAMYYCARLGSSWTNDAFDIWGQGTLVTVSS VL: SYELTQPPSVSVSPGQTARITCSGDALPKQYAYWYQQKPGQAPVLVIYKDTERPSGIPERFSGSSSGTTVTLTISGVQAEDEADYYCQSVDSSGTQVVFGGGTKLTVL | False
scFv 473 (scFv, V domains shown, One-chain scFv, His-tagged) VH: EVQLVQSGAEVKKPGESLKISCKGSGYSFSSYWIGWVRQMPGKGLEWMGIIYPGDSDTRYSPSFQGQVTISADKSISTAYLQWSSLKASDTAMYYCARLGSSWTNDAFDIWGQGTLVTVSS VL: SYELTQPPSVSVSPGQTARITCSGHALPSQYAYWYQQKPGQAPVLVIYKDTERPSGIPERFSGSSSGTTVTLTISGVQAEDEADYYCQSVDSSGTSVIFGGGTKLTVL | True
scFv 478 (scFv, V domains shown, One-chain scFv, His-tagged) VH: EVQLVQSGAEVKKPGESLKISCKGSGYSFNSYWIGWVRQMPGKGLEWMGIIYPGDEDTRYSPSFQGQVTISADKSISTAYLQWSSLKASDTAMYYCARLGSSWTNDAFDIWGQGTLVTVSS VL: SYELTQPPSVSVSPGQTARITCSGDALPKQYAYWYQQKPGQAPVLVIYKDTERPSGIPERFSGSSSGTTVTLTISGVQAEDEADYYCQSVDPSGTYVVFGGGTKLTVL | False
